- System: ADCK3;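 further: KINOMEscan kinase panel screen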
- Construct: gene CABC1
- CONDITION INFO: concentration: 1 μM, replicates: in singlicate; n = 1
# Lookup of reported %Inh keyed by entry
State just the number; it will be interpreted in %.

MOLECULE	UNIT OF MEASUREMENT	RECORDED VALUE
O=c1cc(N2CCOCC2)nc2n(Cc3ccccc3F)ccn12 [GSK2297428]	%	13
O=c1cc(N2CCOCC2)nc2n(Cc3cccc(Cl)c3Cl)c3ccccc3n12 [GSK2299009]	%	13
CC(=O)c1c(C)c2cnc(Nc3ccn(C)n3)nc2n(C2CCCC2)c1=O	%	0
CCCCc1nn2ncccc2c1-c1ccnc(NC2CC2)n1 [GW684374]	%	61

Now look at this one.
Provide one value: measured %Inh of CS(=O)(=O)Cc1ccc(Nc2nccc(-c3c(-c4cccc(NC(=O)C5CCCCC5)c4)nn4ncccc34)n2)cc1 [GSK350559] 24
